Where do these numbers come from? They come from the RNAGym collection of RNA variant scans (doi:10.7554/elife.80360).

B1: HDV Ribozyme (parent)
chain: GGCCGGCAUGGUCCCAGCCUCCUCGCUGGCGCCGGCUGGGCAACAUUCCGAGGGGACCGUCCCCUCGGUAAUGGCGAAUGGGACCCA

- Variants of: B1
- Measurement notes: self-cleavage, relative activity (ratio to wild type); higher = more cleavage; co-transcriptional
Observed property: self-cleavage
Reply with the value as a number alone.

For this variant ( G52A C58G ), measured self-cleavage is 0.974

# variant U23C G40U ; its self-cleavage = 0.587

Kindly note the recorded self-cleavage for G67U C85A , which is 0.831

Sample G1C G82A ; self-cleavage observed: 0.0475

According to the records, this variant C14U C32U displays self-cleavage of 0.86

response.value for C18A C75A (field: self-cleavage) = 0.0906

Item: A16G G29A | self-cleavage: 0.252

So for C7U C44G , the logged self-cleavage turned out to be 0.464

Just so you know, measured self-cleavage for C3A A56C came out at 0.495

Looking up G5C G54C , I see its self-cleavage listed as 0.158

Sample C33U C75U ; self-cleavage observed: 0.0817

# variant A70G C75G ; its self-cleavage = 0.219

self-cleavage reading for G1C G5A : 0.0536

Just so you know, measured self-cleavage for G55A A71U came out at 0.652

Entry C7A C85G , self-cleavage reported as 0.688

// recorded self-cleavage for C57A G76U : 1.16

// recorded self-cleavage for G10A G38U : 0.0923

The reported value for A71C G76A in terms of self-cleavage is 0.935

Documented self-cleavage of C14G G17U : 0.323

Sure, the documented self-cleavage for C58G G74A is 0.499

self-cleavage for U47C G80U is 0.29

Memo: C3U G67U , reported self-cleavage: 0.752

For record G31A G74U the listed self-cleavage is 0.134

Entry G10A C58U ; self-cleavage = 0.972

self-cleavage recorded for this variant, C7U C22U , is 0.394

self-cleavage reading for C18G G35C : 0.104

G53C U65A yielded self-cleavage of 0.629

Entry C48A U65A ; self-cleavage = 0.845

In plain terms, C48A G52C has a documented self-cleavage of 1.03

Entry C61U G82U — recorded self-cleavage = 0.518

// self-cleavage lookup, variant = C33A G82U , result: 0.0332

What the record says about U27G C61A : self-cleavage is 0.759

Record G17U C58U , field self-cleavage: 0.708

Notebook: C32A G53A , self-cleavage read as 0.234

Looking up U23G A83C , I found its self-cleavage recorded as 0

// recorded self-cleavage for C3G G50U : 0.665

# self-cleavage (variant: A8U C75G ) is 0.142

Summary for this variant, G55C G81U : self-cleavage is 0.256

The measured self-cleavage associated with G29U A87G reads 0.0585

Given item G5U A45C , the value recorded as its self-cleavage is 0.0875

Short answer for C22G G25A : self-cleavage was 0.0396

GET /value?item= G25A U37G &field=self-cleavage returns 0.104

Record U9C C14G , field self-cleavage: 0.208

The variant listed as C3A C85A shows self-cleavage equal to 0.646

response.value for G53A G76U (field: self-cleavage) = 1.11

For G6C C7A the variant record lists self-cleavage as 0.772
